test: BSK_BT_PBMCCytotoxicity: PBMC Cytotoxicity Assessment in the BioMAP Diversity Plus: BT Assay (AID 2284225); conditions: primary human B cells with PBMC;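 also: PBMC viability measured by Alamar Blue dye reduction fluorescence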
The source made the active and inactive calls. The calls were made as follows: active = hit-call score of the fitted dose curve at least 0.9, where 1 is the maximum; inactive = score below 0.9.
Assign a class; possible classes are active, inactive

Below, 2 molecules whose answers are already recorded.
{"columns": ["Molecule", "Assigned Category"],
 "data": [
  ["CCN(CC)c1ccc(N=Nc2ccccc2)cc1", "inactive"],
  ["FC(F)(F)C(F)(F)C(F)(F)C(F)(F)C(F)(F)C(F)(F)C(F)(F)CCI", "inactive"]
]}

Incoming: State the result this test recorded for `O=C(O)C(F)(F)C(F)(F)C(F)(F)OC(F)(C(F)(F)F)C(F)(F)F` .
Outgoing: inactive

Incoming: Please do the same for `C=C(C)C(=O)OCC(F)(F)C(F)(F)C(F)(F)C(F)F` as well.
Outgoing: inactive

Incoming: Can you handle `NC(=O)C(F)(F)C(F)(F)C(F)(F)C(F)(F)C(F)(F)C(F)(F)C(F)(F)F` next?
Outgoing: inactive

Incoming: Input `Cc1cc(O)c(C(C)(C)C)cc1C(C)(C)C`
Outgoing: active

Incoming: Proceed to `NS(=O)(=O)C(F)(F)C(F)(F)C(F)(F)C(F)(F)C(F)(F)C(F)(F)F`
Outgoing: inactive

Incoming: Consider next the molecule `CN(C(=O)C(F)(F)C(F)(F)C(F)(F)F)[Si](C)(C)C` in the same way.
Outgoing: inactive

Incoming: Field entry: `NC(O)(C(F)(F)F)C(F)(F)F`
Outgoing: inactive

Incoming: Next molecule up: `CCOC(=O)CC(=O)C(F)(F)C(F)(F)F`
Outgoing: inactive

Incoming: How about this molecule: `CC(C)(C)c1cc(CCC(=O)NCCCCCCNC(=O)CCc2cc(C(C)(C)C)c(O)c(C(C)(C)C)c2)cc(C(C)(C)C)c1O`
Outgoing: inactive

Incoming: And then CC1=CC2C3C=CC(C3)C2C1C (configuration not stated) , what is it?
Outgoing: inactive

Incoming: Try OCC(O)CC(F)(F)C(F)(F)C(F)(F)C(F)(F)C(F)(F)C(F)(F)C(F)(F)C(F)(F)F (configuration not stated) next.
Outgoing: inactive

Incoming: `CCN(CC)c1ccc(C=O)c(O)c1` , same question.
Outgoing: inactive

Incoming: Okay, and `O=C=NCc1cccc(CN=C=O)c1` ?
Outgoing: inactive

Incoming: Continue with `NC(=O)C(F)(F)C(F)(F)C(F)(F)C(F)F`
Outgoing: inactive

Incoming: Also OCC(O)CC(F)(F)C(F)(F)C(F)(F)C(F)(F)F (configuration not stated) , if possible.
Outgoing: inactive

Incoming: Would you kindly repeat that for `O=C1c2c(O)ccc(Nc3ccc(CCO)cc3)c2C(=O)c2c([N+](=O)[O-])ccc(O)c21` ?
Outgoing: active

Incoming: Next entry: `CCN(CC)c1ccc2c(c1)Oc1cc(N(CC)CC)ccc1C21OC(=O)c2ccccc21`
Outgoing: active

Incoming: Follow-up item: `CO[Si](C)(CCC(F)(F)C(F)(F)C(F)(F)C(F)(F)C(F)(F)C(F)(F)F)OC`
Outgoing: inactive

Incoming: // same read-out, input: COC(F)(C(F)F)C(F)(F)F (configuration not stated)
Outgoing: inactive

Incoming: Now the molecule `OCC(F)(F)C(F)(F)C(F)(F)CO`
Outgoing: inactive
